# tgt: T1, mouse TMEM106B (mouse, UniProt Q80X71 2-275)
# T1 construct: on transiently transfected HEK293 cells, or natively expressed on mouse Neuro2a cells; also called moTMEM106B; murine TMEM106B
# experiment-summary: FACS, HEK293 transfectants;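 further: flow cytometry binding of hybridoma supernatants to HEK293 cells transiently expressing human, cyno or mouse TMEM106B, read as anti-mouse-APC median fluorescence, live cells only, 30 min on ice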
experimental-endpoint: fold-change over parental HEK293 (fold)
Note: unit fold is implicit; provide only the numeric part.

Recorded results for 2 binders are shown here.
Return fold-change over parental HEK293 for the following binder: anti-TMEM106B antibody TM-49 (antibody, V domains shown, mouse IgG from hybridoma) VH: QVQLQQPGAELVRPGSSVKLSCKASGYTFTRFWMHWVKQRPIQGLEWIGNIDPSDSQTHYNQKFKDKATLTVDKSSSTAYMQLSSLTSEDSAVYYCARLITVDYAMDYWGQGTSVTVSS VL: QIVLTQSPAIMSASPGEKVTISCSASSSVSYMYWYQQKPGSSPKPWIHRTSNLASGVPVRFSGSGSGTSYSLTISSMEAEDAATYYCQQYHSYPPTFGAGTKLELK
21.3

Tell me its fold-change over parental HEK293 given anti-TMEM106B antibody TM-26 (antibody, V domains shown) VH: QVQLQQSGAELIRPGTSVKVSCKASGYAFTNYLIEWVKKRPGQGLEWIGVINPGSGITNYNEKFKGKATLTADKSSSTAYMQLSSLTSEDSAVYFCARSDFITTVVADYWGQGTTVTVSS VL: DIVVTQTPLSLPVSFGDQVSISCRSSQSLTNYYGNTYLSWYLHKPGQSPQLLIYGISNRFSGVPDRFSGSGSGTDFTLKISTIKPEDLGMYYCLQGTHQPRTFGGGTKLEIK as the entry.
6.54

Others:
Please list fold-change over parental HEK293 recorded for the binder anti-TMEM106B antibody TM-2 (antibody, V domains shown) VH: HIQLVQSGPELKKPGETVKISCKASGYTFTEYPMHWVKQAPGKGFRWMGMIYTNTGEPTYAAEFKGRFAFSLETSASTGYLQINNLKNEDSATYFCVTAGYWGQGTLVTVSA VL: QIVLTQSPAILSASPGEKVTMTCRASSSVSYIHWFLQKPGSSPKPWIYATSNLASGVPFRFIGSGSGTSYSLTISGVEAEDSATYYCQQWSSNPSTFGAGTKLELK
17.5
